# target system: rat brain N-type calcium channel subunits (α1B+α2δ+β1b cDNA subunits) (Rattus norvegicus, UniProt Q02294)
# Construct: expressed in transfected cells; host or cells: HEK 293
# Sequence (Q02294 whole entry): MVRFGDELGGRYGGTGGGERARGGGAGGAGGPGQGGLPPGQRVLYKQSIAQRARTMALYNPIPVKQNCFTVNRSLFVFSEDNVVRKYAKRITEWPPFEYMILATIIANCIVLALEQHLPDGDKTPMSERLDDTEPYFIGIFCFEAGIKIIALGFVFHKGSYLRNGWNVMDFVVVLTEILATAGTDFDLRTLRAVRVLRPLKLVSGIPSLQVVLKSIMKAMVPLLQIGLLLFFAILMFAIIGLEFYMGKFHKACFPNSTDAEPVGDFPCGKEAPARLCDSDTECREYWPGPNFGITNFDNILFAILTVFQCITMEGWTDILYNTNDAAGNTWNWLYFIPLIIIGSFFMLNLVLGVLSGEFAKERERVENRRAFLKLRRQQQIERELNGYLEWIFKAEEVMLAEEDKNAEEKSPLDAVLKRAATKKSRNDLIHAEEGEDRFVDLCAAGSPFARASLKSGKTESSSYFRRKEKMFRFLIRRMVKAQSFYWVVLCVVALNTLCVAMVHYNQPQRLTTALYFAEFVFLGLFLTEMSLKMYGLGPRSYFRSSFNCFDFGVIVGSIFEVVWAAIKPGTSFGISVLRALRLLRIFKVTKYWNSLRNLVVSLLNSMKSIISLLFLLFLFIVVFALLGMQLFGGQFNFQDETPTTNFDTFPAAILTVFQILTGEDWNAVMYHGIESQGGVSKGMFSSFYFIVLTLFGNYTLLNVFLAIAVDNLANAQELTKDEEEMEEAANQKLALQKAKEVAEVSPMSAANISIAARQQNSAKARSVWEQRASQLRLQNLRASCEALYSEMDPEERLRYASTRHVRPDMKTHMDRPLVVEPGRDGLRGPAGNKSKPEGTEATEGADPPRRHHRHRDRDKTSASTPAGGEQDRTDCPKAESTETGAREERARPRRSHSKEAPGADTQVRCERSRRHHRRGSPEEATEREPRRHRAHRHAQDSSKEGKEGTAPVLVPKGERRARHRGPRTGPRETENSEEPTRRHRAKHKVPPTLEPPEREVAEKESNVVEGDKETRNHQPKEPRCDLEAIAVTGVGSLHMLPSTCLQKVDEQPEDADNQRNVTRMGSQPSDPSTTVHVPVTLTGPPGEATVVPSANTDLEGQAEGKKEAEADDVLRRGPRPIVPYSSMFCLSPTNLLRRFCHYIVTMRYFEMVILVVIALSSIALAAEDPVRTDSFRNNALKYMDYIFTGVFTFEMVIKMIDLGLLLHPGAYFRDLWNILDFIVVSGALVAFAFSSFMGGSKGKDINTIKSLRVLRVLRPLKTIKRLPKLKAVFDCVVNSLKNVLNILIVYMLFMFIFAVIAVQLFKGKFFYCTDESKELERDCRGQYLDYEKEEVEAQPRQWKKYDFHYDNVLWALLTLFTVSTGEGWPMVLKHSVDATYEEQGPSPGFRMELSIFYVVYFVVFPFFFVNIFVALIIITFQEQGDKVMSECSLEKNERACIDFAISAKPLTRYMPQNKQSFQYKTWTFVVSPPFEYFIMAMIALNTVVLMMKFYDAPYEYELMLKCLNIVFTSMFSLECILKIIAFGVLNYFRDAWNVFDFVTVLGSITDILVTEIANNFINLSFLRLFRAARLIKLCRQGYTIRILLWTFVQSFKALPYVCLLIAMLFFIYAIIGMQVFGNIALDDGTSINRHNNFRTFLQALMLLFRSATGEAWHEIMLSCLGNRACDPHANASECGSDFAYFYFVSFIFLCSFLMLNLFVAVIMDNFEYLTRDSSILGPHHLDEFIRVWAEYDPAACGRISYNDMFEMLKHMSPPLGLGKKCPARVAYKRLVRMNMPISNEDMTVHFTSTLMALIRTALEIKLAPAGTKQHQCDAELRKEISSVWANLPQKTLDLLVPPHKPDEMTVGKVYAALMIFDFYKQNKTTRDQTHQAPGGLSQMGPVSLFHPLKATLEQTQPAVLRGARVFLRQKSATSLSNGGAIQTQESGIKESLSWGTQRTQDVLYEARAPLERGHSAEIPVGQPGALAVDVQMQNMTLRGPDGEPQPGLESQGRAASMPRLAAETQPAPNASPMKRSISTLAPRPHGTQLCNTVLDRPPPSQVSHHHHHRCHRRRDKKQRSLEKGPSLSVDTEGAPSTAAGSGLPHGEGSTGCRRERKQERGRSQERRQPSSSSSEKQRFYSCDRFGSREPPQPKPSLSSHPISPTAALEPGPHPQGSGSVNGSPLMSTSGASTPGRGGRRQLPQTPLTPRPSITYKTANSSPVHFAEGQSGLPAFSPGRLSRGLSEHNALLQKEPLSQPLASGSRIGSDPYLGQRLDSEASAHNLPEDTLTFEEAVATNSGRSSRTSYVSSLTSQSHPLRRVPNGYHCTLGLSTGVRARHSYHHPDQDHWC
# method: N-type calcium channel block, whole cell patch clamp in HEK 293 cells
# Format: cell-based
# measurement setup: low frequency stimulation 0.067 Hz (tonic block); holding potential −80 mV to +10 mV; read-out: IC50 @ 0.067 Hz
assay endpoint: IC50 (nM)

> print(dat)
                                        mol  measurement.units  quantitative.result
1  CC(C)(C)c1cc(C(=O)NC/C=C/CNC(=O)CCCCC(c2ccc(F)cc2)c2ccc(F)cc2)cc(C(C)(C)C)c1O                 nM                  790
2  O=C(CCCCC(c1ccc(F)cc1)c1ccc(F)cc1)NC/C=C\CNC(=O)c1ccc(F)cc1                 nM                  182
3  CC(C)(C)c1ccc(C(=O)NC/C=C/CNC(=O)CCCCC(c2ccc(F)cc2)c2ccc(F)cc2)cc1                 nM                  510
4  CC(C)c1ccc(C(=O)NC/C=C/CNC(=O)CCCCC(c2ccc(F)cc2)c2ccc(F)cc2)cc1                 nM                  598
